# TARGET_OF_ASSAY: APOL1 G1 (Homo sapiens, UniProt O14791, I384M/S342G)
# Sequence (O14791 28-398 S342G/I384M): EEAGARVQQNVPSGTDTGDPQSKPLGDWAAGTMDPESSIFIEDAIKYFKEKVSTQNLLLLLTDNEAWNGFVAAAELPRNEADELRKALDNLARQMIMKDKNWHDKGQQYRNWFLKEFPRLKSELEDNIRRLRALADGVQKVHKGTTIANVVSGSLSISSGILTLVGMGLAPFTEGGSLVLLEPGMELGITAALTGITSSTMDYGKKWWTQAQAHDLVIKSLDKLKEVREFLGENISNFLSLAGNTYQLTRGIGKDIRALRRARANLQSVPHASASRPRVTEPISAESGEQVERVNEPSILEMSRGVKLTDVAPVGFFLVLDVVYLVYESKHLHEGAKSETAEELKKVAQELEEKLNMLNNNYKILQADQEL
# METHOD_NOTES: MultiTox-Fluor Multiplex Cytotoxicity Assay, tet-inducible APOL1 G1 T-REx-HEK293 cells
# Format: cell-based
# Parameters: expressed in transfected cells; host or cells: T-REx HEK293, clone G1 DC3.25 (pAAVS1-Puro-APOL1 G1)
# CONDITION_NOTES: Multi-Tox Assay; APOL1 variant not given; read-out: Multi-Tox Assay Max Activity (%)
REPORTED_ENDPOINT: Emax (%)
Answers are plain numbers, in %.

// solved cases for Emax follow
Give Emax; test system APOL1 G1 (Homo sapiens, UniProt O14791, I384M/S342G); molecule C[C@@H]1CC2(C[C@H](C)N1)OCCc1c2sc(C(F)(F)F)c1CO (single isomer, unassigned) 99.5

Give Emax; test system APOL1 G1 (Homo sapiens, UniProt O14791, I384M/S342G); molecule COCC1CC2(CC(c3cn(C)nn3)N1)OCCc1cc(C(F)(F)F)sc12 (stereo not shown) 99

Give Emax; test system APOL1 G1 (Homo sapiens, UniProt O14791, I384M/S342G); molecule CCOc1ccc([C@@H]2C[C@]3(C[C@H](C)N2)OCCc2cc(Cl)sc23)nc1 (racemic) 99.7

Consider the record given below.
Give Emax; test system APOL1 G1 (Homo sapiens, UniProt O14791, I384M/S342G); molecule C[C@H]1C[C@@]2(C[C@@H](c3cn(C)nn3)N1)OC[C@H](O)c1cc(C(F)(F)F)sc12 99.8

* * *

Could you please report measured IC90 for the items listed next?
# TARGET_OF_ASSAY: APOL1 G1 (Homo sapiens, UniProt O14791, I384M/S342G)
# METHOD_NOTES: MultiTox-Fluor Multiplex Cytotoxicity Assay, tet-inducible APOL1 G1 T-REx-HEK293 cells
# Format: cell-based
# Parameters: expressed in transfected cells; host or cells: T-REx HEK293, clone G1 DC3.25 (pAAVS1-Puro-APOL1 G1)
# CONDITION_NOTES: HEK293, Multi-Tox Assay; APOL1 variant (G0/G1/G2) of the HEK293 cells not given; read-out: Multi-Tox Assay IC90

Please report IC90 for every entry that follows.
1. C[C@H]1CC2(C[C@@H](c3cn(C)nn3)N1)OCCc1sc(Cl)cc12 (single isomer, unassigned)
2. C[C@H]1C[C@@]2(C[C@@H](c3cn(CC4CCOCC4)nn3)N1)OC[C@@H](O)c1cc(Cl)sc12
3. CCOc1ccc([C@@H]2C[C@]3(C[C@H](C)N2)OCCc2cc(Cl)sc23)nc1 (racemic)
4. C[C@@H]1CC2(C[C@H](C)N1)OCCc1cc(C(F)(F)F)sc12 (single isomer, unassigned)
5. Cc1cnc([C@@H]2C[C@]3(C[C@H](C)N2)OCCc2cc(Cl)sc23)o1 (racemic)

["< 50 nM", "50 to 500 nM", "< 50 nM", "50 to 500 nM", "50 to 500 nM"]

Please report IC90 for every entry that follows.
1. C[C@H]1C[C@@]2(C[C@@H](c3cn(Cc4ccc(O)cc4)nn3)N1)OCC(F)(F)c1cc(Cl)sc12
2. Cc1nn(C)cc1[C@@H]1C[C@]2(C[C@H](C)N1)OCCc1cc(Cl)sc12 (racemic)

1: 50 to 500 nM; 2: 50 to 500 nM

* * *

# TARGET_OF_ASSAY: APOL1 G1 (Homo sapiens, UniProt O14791, I384M/S342G)
# METHOD_NOTES: MultiTox-Fluor Multiplex Cytotoxicity Assay, tet-inducible APOL1 G1 T-REx-HEK293 cells
# Assay type: cell-based
# Set-up: expressed in transfected cells; host or cells: T-REx HEK293, clone G1 DC3.25 (pAAVS1-Puro-APOL1 G1)
# CONDITION_NOTES: Multi-Tox Assay; APOL1 variant not given
REPORTED_ENDPOINT: Multi-Tox Assay Max Activity (%)
One number for each entry, in %.

// solved cases for Multi-Tox Assay Max Activity (%) follow
Return Multi-Tox Assay Max Activity (%) for the following compound: Cc1nn(C)c2ncc(C3CC4(CC(C)N3)OCCc3cc(Cl)sc34)cc12 (stereo not shown) 99.7

Return Multi-Tox Assay Max Activity (%) for the following compound: Cc1nc([C@@H]2C[C@]3(C[C@H](C)N2)OCCc2cc(Cl)sc23)oc1C (racemic) 98.0

Please report Multi-Tox Assay Max Activity (%) for every entry that follows.
1. C[C@H]1C[C@@]2(C[C@@H](c3cnn(CC(C)(CO)CO)c3)N1)OCCc1cc(Cl)sc12 (racemic)
2. C[C@H]1C[C@@]2(C[C@@H](c3cnccc3O)N1)OCCc1cc(Cl)sc12 (racemic)

99.6
94.3

* * *

# TARGET_OF_ASSAY: APOL1 G1 (Homo sapiens, UniProt O14791, I384M/S342G)
# METHOD_NOTES: MultiTox-Fluor Multiplex Cytotoxicity Assay, tet-inducible APOL1 G1 T-REx-HEK293 cells
# Assay type: cell-based
# Set-up: expressed in transfected cells; host or cells: T-REx HEK293, clone G1 DC3.25 (pAAVS1-Puro-APOL1 G1)
# CONDITION_NOTES: Multi-Tox Assay; APOL1 variant not given
REPORTED_ENDPOINT: Multi-Tox Assay Max Activity (%)
Answers are plain numbers, in %.

Return Multi-Tox Assay Max Activity (%) for the following molecule: CCc1nc([C@@H]2C[C@]3(C[C@H](C)N2)OCCc2cc(Cl)sc23)c[nH]1 (racemic) [Compound 128] 99.3

Return Multi-Tox Assay Max Activity (%) for the following molecule: C[C@H]1C[C@@]2(C[C@@H](c3cn(Cc4ncnc5[nH]ccc45)nn3)N1)OC[C@@H](O)c1cc(Cl)sc12 [Compound 234] 100.0

Return Multi-Tox Assay Max Activity (%) for the following molecule: C[C@H]1C[C@@]2(C[C@@H](c3ccnn3C)N1)OCCc1cc(Cl)sc12 (racemic) [Compound 152] 98.0

Return Multi-Tox Assay Max Activity (%) for the following molecule: C[C@H]1C[C@@]2(C[C@@H](c3cn(CCC4CCCOC4)nn3)N1)OC[C@@H](O)c1cc(Cl)sc12 (stereo partly drawn) [Compound 273] 101.0

Return Multi-Tox Assay Max Activity (%) for the following molecule: C[C@H]1C[C@@]2(C[C@@H](c3cn(Cc4ccc(O)nc4)nn3)N1)OCC(F)(F)c1cc(Cl)sc12 [Compound 316] 95.0

Return Multi-Tox Assay Max Activity (%) for the following molecule: Cc1cnc([C@@H]2C[C@]3(C[C@H](C)N2)OCCc2cc(Cl)sc23)o1 (racemic) [Compound 134] 99.2

Return Multi-Tox Assay Max Activity (%) for the following molecule: CC1CC2(CC(c3cc(F)cc(C#N)c3)N1)OCCc1cc(Cl)sc12 (stereo not drawn) [Compound 33] 98.7

Return Multi-Tox Assay Max Activity (%) for the following molecule: COc1cccc(C2CC3(CC(C)N2)OCCc2cc(Cl)sc23)n1 (mixture of isomers) [Compound 135] 98.0

Please report Multi-Tox Assay Max Activity (%) for every entry that follows.
1. CNC(=O)c1cccc(C2CC3(CC(C)N2)OCCc2cc(Cl)sc23)c1 (stereo not drawn) [Compound 27]
2. COCC1(Cn2cc([C@@H]3C[C@]4(C[C@H](C)N3)OC[C@@H](O)c3cc(Cl)sc34)nn2)CC1 [Compound 270]
3. C[C@H]1C[C@@]2(C[C@@H](c3cn(Cc4cocn4)nn3)N1)OCC(F)(F)c1cc(Cl)sc12 [Compound 331]
4. C[C@H]1C[C@@]2(C[C@@H](c3cnccn3)N1)OCCc1cc(Cl)sc12 (racemic) [Compound 101]

1. 100.3
2. 93.0
3. 98.0
4. 100.0

Please report Multi-Tox Assay Max Activity (%) for every entry that follows.
1. COCc1cc([C@@H]2C[C@]3(C[C@H](C)N2)OCCc2cc(Cl)sc23)no1 (racemic) [Compound 106]
2. C[C@H]1C[C@@]2(C[C@@H](c3cccc(NS(C)(=O)=O)c3)N1)OCCc1cc(Cl)sc12 (racemic) [Compound 115]
3. C[C@H]1C[C@@]2(C[C@@H](c3cccc(C#N)n3)N1)OCCc1cc(Cl)sc12 (racemic) [Compound 53]

[99.7, 99.3, 99.3]

* * *

# TARGET_OF_ASSAY: APOL1 G1 (Homo sapiens, UniProt O14791, I384M/S342G)
# METHOD_NOTES: MultiTox-Fluor Multiplex Cytotoxicity Assay, tet-inducible APOL1 G1 T-REx-HEK293 cells
# Type: cell-based
# Parameters: expressed in transfected cells; host or cells: T-REx HEK293, clone G1 DC3.25 (pAAVS1-Puro-APOL1 G1)
# CONDITION_NOTES: HEK293, Multi-Tox Assay; APOL1 variant (G0/G1/G2) of the HEK293 cells not given; read-out: Multi-Tox Assay IC90
REPORTED_ENDPOINT: IC90

// solved cases for IC90 follow
Give IC90; test system APOL1 G1 (Homo sapiens, UniProt O14791, I384M/S342G); compound Cc1c(Cn2cc([C@@H]3C[C@]4(C[C@H](C)N3)OCC(F)(F)c3cc(Cl)sc34)nn2)cnn1C 50 to 500 nM

Give IC90; test system APOL1 G1 (Homo sapiens, UniProt O14791, I384M/S342G); compound C[C@H]1C[C@@]2(C[C@@H](c3n[nH]c4ccccc34)N1)OCCc1cc(Cl)sc12 (racemic) > 500 nM

Give IC90; test system APOL1 G1 (Homo sapiens, UniProt O14791, I384M/S342G); compound C[C@H]1C[C@@]2(C[C@@H](c3cn(Cc4ccccc4S(C)(=O)=O)nn3)N1)OC[C@@H](O)c1cc(Cl)sc12 50 to 500 nM

Please report IC90 for every entry that follows.
1. COc1ccnc([C@@H]2C[C@]3(C[C@H](C)N2)OCCc2cc(Cl)sc23)n1 (racemic)
2. Cc1cc(C)nc(CCn2cc([C@@H]3C[C@]4(C[C@H](C)N3)OC[C@@H](O)c3cc(Cl)sc34)nn2)c1
3. C[C@H]1C[C@@]2(C[C@@H](c3c[nH]nn3)N1)OCCc1cc(Cl)sc12 (racemic)
4. Cc1c([C@@H]2C[C@]3(C[C@H](C)N2)OCCc2cc(Cl)sc23)cnn1C (racemic)

> 500 nM
50 to 500 nM
< 50 nM
50 to 500 nM
